Kindly supply the reported growth values for the records listed here.
Tested on: DU-145 prostate
Test: NCI-60 one-dose screen, 48 h (100 = growth as untreated, 0 = no growth, -100 = all killed)
Conditions: 10 µM
This is part of a sample that, as a whole, favours compounds with a hit. Of some 83,000 tested, about 20% had one in any assay. Activity calls are given as the source filed them. How the source made its calls: active means growth percent below 10; inactive means the rest.

Record lookup: for DU-145 prostate, what growth belongs to Cc1ccc(CCCC(=O)O)c(C)c1 ?
107% (inactive)

Record lookup: for DU-145 prostate, what growth belongs to C[N+](C)(C)C(=O)c1ccccc1 ?
114% (inactive)

Record lookup: for DU-145 prostate, what growth belongs to COc1cc(/C=C(\C#N)C(=O)c2ccccc2)ccc1OCc1ccccc1 ?
102% (inactive)

Record lookup: for DU-145 prostate, what growth belongs to S=C1NCc2cncnc2N1 ?
112% (inactive)

Record lookup: for DU-145 prostate, what growth belongs to Cc1cccc(CO)c1 ?
98.1% (inactive)

Record lookup: for DU-145 prostate, what growth belongs to O=[N+]([O-])c1ccc(S(=O)(=O)NN=C2CCCCC2)cc1 ?
121% (inactive)

Record lookup: for DU-145 prostate, what growth belongs to O=C(Cc1nc2ccc([N+](=O)[O-])cc2nc1CC(=O)c1ccccc1)c1ccccc1 ?
50.6% (inactive)

Record lookup: for DU-145 prostate, what growth belongs to O=[N+]([O-])c1ccc(N=Nc2ccc(O)c3ccccc23)cc1 ?
66.9% (inactive)

Record lookup: for DU-145 prostate, what growth belongs to CCCC(=O)Nc1ccc2c(c1)CN1C(=O)c3ccccc3C1=N2 ?
101% (inactive)

Record lookup: for DU-145 prostate, what growth belongs to CCc1ccc(/C(C#N)=C/C=C/c2ccccc2)cc1 ?
24.9% (inactive)

Record lookup: for DU-145 prostate, what growth belongs to CC(=O)NCc1cc(C)c(C)cc1C ?
104% (inactive)

Record lookup: for DU-145 prostate, what growth belongs to CCCCCCCO ?
114% (inactive)

Record lookup: for DU-145 prostate, what growth belongs to CCNCCCCNCCCCNCCCCNCCCCNCC ?
82.1% (inactive)

* * *

Test system: UO-31 renal
Experiment: NCI-60 one-dose screen, 48 h (100 = growth as untreated, 0 = no growth, -100 = all killed)
Settings: 10 µM
About 83,000 compounds went through this panel and 20% of them were active in at least one assay; those are over-represented in the sample as a whole. Active and inactive are the calls of the source. The calls were made as follows: active = growth percent below 10; inactive = the rest.
parameter: growth

Record lookup: for UO-31 renal, what growth belongs to C[C@@H](c1ccccc1)[C@@H](C(=O)O)c1ccccc1 ?
91.2% (inactive)

Record lookup: for UO-31 renal, what growth belongs to S=c1sc2ccccc2n1CN1CCCCC1 ?
77.2% (inactive)

Record lookup: for UO-31 renal, what growth belongs to CC(=Nc1ccccc1)C1=C(O)C(Cc2cccc(F)c2)NC1=O (configuration not stated) ?
35.9% (inactive)

Record lookup: for UO-31 renal, what growth belongs to FC(F)(F)c1ccc2c(c1)N(CCCN1CCN(C3CC3)CC1)c1ccccc1S2 ?
17.6% (inactive)

Record lookup: for UO-31 renal, what growth belongs to COc1cc(/C=C/C(=O)c2ccccc2)cc(OC)c1OC ?
49.7% (inactive)

Record lookup: for UO-31 renal, what growth belongs to CC1(C)N=C(N)N=C(N)N1c1ccc(Cl)cc1 ?
85.9% (inactive)

Record lookup: for UO-31 renal, what growth belongs to C=C1CC/C=C(\C)C(=O)C[C@@H]2[C@@H]1CC2(C)C ?
88.3% (inactive)

Record lookup: for UO-31 renal, what growth belongs to CN(C)c1ccc(S(=O)(=O)O)cc1 ?
87.9% (inactive)

Record lookup: for UO-31 renal, what growth belongs to Cc1ccccc1C1N=C2Oc3ccccc3C=C2C(=O)N1 (configuration not stated) ?
52% (inactive)

Record lookup: for UO-31 renal, what growth belongs to COc1cc(C(N)=O)cc(OC)c1OC ?
82.5% (inactive)

Record lookup: for UO-31 renal, what growth belongs to CC1=C(/C=C/C(C)=C/C=C/C(C)=C/CO)C(C)(C)CCC1 ?
87.3% (inactive)

Record lookup: for UO-31 renal, what growth belongs to COC(=O)c1cccnc1 ?
78.9% (inactive)
